The measured values listed here are drawn from patent US20060084688A1.

- assayTarget: recombinant human MMP-2 (Homo sapiens, UniProt P08253)
- Sequence (P08253 110-660): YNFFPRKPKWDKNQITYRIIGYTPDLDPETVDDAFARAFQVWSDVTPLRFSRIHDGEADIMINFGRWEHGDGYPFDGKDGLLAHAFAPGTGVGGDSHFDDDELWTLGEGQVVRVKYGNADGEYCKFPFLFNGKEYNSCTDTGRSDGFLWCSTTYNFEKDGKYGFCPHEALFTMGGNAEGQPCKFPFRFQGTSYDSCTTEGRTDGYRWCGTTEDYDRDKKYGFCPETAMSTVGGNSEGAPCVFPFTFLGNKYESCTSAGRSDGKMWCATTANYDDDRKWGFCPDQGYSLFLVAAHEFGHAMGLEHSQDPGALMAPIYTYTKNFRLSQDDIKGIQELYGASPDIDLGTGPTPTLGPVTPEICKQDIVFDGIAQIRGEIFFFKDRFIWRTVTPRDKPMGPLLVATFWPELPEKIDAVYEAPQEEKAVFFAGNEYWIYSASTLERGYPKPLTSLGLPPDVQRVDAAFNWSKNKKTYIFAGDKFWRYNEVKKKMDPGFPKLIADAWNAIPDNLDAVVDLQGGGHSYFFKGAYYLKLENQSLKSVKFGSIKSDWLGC
- test: biochemical
- measurementContext: room temperature, pH 7.5, 1 percent DMSO, 4 μM MCA peptide substrate; no asterisk
pIC50: −log10 of the molar value.
attributeMeasured: pIC50

compound | attributeMeasured | value
O=C(NO)C1(S(=O)(=O)c2ccc(SC3CCCCC3)cc2)CCN(C2CC2)CC1 [Example 21] | pIC50 | 8.89

* * *

Recorded MTS Toxicity TD50, one value per entry.
- System: human monocytic line U-937
- Type: cell-based

molecularString | assayTarget | MTS Toxicity TD50
O=C(NO)C1(S(=O)(=O)c2ccc(Oc3ccc(C(F)(F)F)cc3)cc2)CCOCC1 | human monocytic line U-937 | 80 µM
Cl.O=C(NO)C1(S(=O)(=O)c2ccc(Oc3ccccc3)cc2)CCNCC1 | human monocytic line U-937 | >100 µM
C#CCN1CCC(C(=O)NO)(S(=O)(=O)c2ccc(Sc3ccccc3)cc2)CC1.Cl | human monocytic line U-937 | >100 µM
COCCN1CCC(C(=O)NO)(S(=O)(=O)c2ccc(Sc3ccccc3)cc2)CC1.Cl | human monocytic line U-937 | >100 µM
Cl.O=C(NO)C1(S(=O)(=O)c2ccc(Sc3ccc(F)cc3)cc2)CCN(C2CC2)CC1 | human monocytic line U-937 | 100 µM
C#CCN1CCC(C(=O)NO)(S(=O)(=O)c2ccc(Oc3ccc4c(c3)OCO4)cc2)CC1.Cl | human monocytic line U-937 | >100 µM

* * *

- assayTarget: recombinant human MMP-13 (Homo sapiens, UniProt P45452)
- test: biochemical
- measurementContext: Inhibition Table B

compound | readingQualifier | IC50 [µM]
C#CCN1CCC(C(=O)NO)(S(=O)(=O)c2ccc([S+]([O-])c3ccccc3)cc2)CC1 (stereo not shown) [Example 47b] | = | 3.1
CN(C)[C@H]1CCN(C(=O)C2CCCN(c3ccc(S(=O)(=O)C4(C(=O)NO)CCOCC4)cc3)C2)C1 (stereo partly shown) | > | 0.1
O=C(C1CCCN(c2ccc(S(=O)(=O)C3(C(=O)NO)CCOCC3)cc2)C1)N1CCCC2CCCCC21 (stereo not shown) | > | 0.1
O=C([C@@H]1CCCN1)N1CCN(c2ccc(S(=O)(=O)C3(C(=O)NO)CCOCC3)cc2)CC1 | = | 0.03
O=C(O)C1CCN(c2ccc(S(=O)(=O)C3(C(=O)NO)CCOCC3)cc2)CC1 | = | 1
CCOC(=O)C1CCN(C(=O)C2CCN(c3ccc(S(=O)(=O)C4(C(=O)NO)CCOCC4)cc3)CC2)CC1 | = | 0.0165
CC1(C)C[C@@H]2C[C@@](C)(CN2C(=O)C2CCN(c3ccc(S(=O)(=O)C4(C(=O)NO)CCOCC4)cc3)CC2)C1 | = | 0.02
